// reported pIC50 per item
Molecular target: C-X-C chemokine receptor type 3 (Homo sapiens)
Sequence (P49682 whole entry): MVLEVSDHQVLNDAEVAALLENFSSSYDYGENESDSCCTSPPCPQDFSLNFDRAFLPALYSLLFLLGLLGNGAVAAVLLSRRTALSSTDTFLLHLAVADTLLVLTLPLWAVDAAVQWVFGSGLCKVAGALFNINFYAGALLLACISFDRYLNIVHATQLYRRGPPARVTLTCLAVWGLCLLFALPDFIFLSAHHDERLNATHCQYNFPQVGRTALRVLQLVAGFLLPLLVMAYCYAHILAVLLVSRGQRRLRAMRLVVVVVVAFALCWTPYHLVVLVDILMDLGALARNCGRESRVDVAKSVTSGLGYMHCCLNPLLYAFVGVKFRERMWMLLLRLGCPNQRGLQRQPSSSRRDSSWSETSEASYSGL
Assay: Antagonist activity at human recombinant CXCR3 expressed in CHO-K1 cells measured after 10 mins in presence of CXCL10 by FLIPR analysis
pIC50: −log10 of the molar value.
Recorded Metric: pIC50

> print(dat)
                          compound.structure  experimental.result
 1  C[C@@H]1CN(c2sc(C(F)(F)F)nc2-c2nc3ccccc3[nH]2)CCN1C(=O)Cn1cc(Cl)cn1                 8.77
 2  Cc1nc(C)n(CC(=O)N2CCN(c3sc(C(F)(F)F)nc3-c3nc4ccc(-c5noc(C)n5)cc4[nH]3)C[C@H]2C)n1                 8.60
 3  Cc1ccc(CC(=O)N2CCN(c3sc(C(F)(F)F)nc3-c3nc4ccccc4[nH]3)C[C@H]2C)cn1                 8.21
 4  Cc1nc(C)n(CC(=O)N2CCN(c3sc(C(F)(F)F)nc3-c3nc4c(C(F)(F)F)cccc4[nH]3)C[C@H]2C)n1                 8.22
 5  COc1cc2nc(-c3nc(C(F)(F)F)sc3N3CCN(C(=O)Cn4cnc5cccnc54)[C@H](C)C3)[nH]c2cc1OC                 8.49
 6  Cc1nc(C)n(CC(=O)N2CCN(c3sc(C(F)(F)F)nc3-c3nc4ccc(OC5CNC5)cc4[nH]3)C[C@H]2C)n1                 8.42
 7  C[C@@H]1CN(c2sc(C(F)(F)F)nc2-c2nc3ccccc3n2C)CCN1C(=O)Cn1cccn1                 6.96
 8  C[C@@H]1CN(c2sc(C(F)(F)F)nc2-c2nc3ccccc3[nH]2)CCN1C(=O)Cn1cccn1                 7.89
 9  C[C@@H]1CN(c2sc(C(F)(F)F)nc2-c2nc3ccccc3[nH]2)CCN1C(=O)Cn1cnc2c1CCN(C)C2                 8.44
10  Cc1nc(C)n(CC(=O)N2CCN(c3sc(C(F)(F)F)nc3-c3nc4ccc(C5CCOCC5)cc4[nH]3)C[C@H]2C)n1                 8.48
11  Cc1nc(C)n(CC(=O)N2CCN(c3sc(C(F)(F)F)nc3-c3nc4ccc(N5CCOCC5)cc4[nH]3)C[C@H]2C)n1                 8.24
12  Cc1nc(C)n(CC(=O)N2CCN(c3sc(C(F)(F)F)nc3-c3nc4ccccc4[nH]3)C[C@H]2C)n1                 8.49
13  C[C@@H]1CN(c2sc(C(F)(F)F)nc2-c2nc3cc(Cl)ccc3[nH]2)CCN1C(=O)Cn1cnc2cccnc21                 8.55
14  Cc1nc(C)n(CC(=O)N2CCN(c3sc(C(F)(F)F)nc3-c3nc4c(F)cccc4[nH]3)C[C@H]2C)n1                 8.51
15  C[C@@H]1CN(c2sc(C(F)(F)F)nc2-c2nc3ccccc3[nH]2)CCN1C(=O)Cn1cc(C2CCN(C)CC2)cn1                 7.82
16  C[C@@H]1CN(c2sc(C(F)(F)F)nc2-c2nc3ccccc3[nH]2)CCN1C(=O)Cn1c(=O)[nH]c2cccnc21                 8.59
17  C[C@@H]1CN(c2sc(C(F)(F)F)nc2-c2nc3ccc(N4CCN(C)CC4)cc3[nH]2)CCN1C(=O)Cn1cccn1                 8.80
